Target: bovine testis hyaluronidase (Bos taurus, UniProt Q2YDK3)
Construct: purchased Sigma–Aldrich GmbH (Steinheim, Germany); host or cells: bovine testis
Sequence (Q2YDK3 36-553): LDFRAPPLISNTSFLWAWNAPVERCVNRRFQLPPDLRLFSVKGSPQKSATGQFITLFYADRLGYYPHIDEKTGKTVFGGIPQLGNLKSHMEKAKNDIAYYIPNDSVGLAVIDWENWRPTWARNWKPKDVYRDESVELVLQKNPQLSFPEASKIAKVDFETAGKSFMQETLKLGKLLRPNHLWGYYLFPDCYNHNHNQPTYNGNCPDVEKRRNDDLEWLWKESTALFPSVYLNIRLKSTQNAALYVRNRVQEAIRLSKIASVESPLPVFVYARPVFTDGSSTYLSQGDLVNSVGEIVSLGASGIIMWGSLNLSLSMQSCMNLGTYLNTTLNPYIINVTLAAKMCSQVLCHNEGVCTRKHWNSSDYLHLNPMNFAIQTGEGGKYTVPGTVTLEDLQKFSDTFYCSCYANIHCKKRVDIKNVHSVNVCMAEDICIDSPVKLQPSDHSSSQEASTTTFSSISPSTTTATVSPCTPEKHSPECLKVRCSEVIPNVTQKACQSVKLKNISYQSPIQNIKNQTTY
Assay: Hyaluronidase activity, USP turbidimetric method modified
Assay type: biochemical
Description: The […] flowering herb was collected from its natural habitat in Umer in the Świętokrzyskie region (Poland) in July 2011. […] Isolated ellagitannins were of >95 % purity (determined by the HPLC-DAD-CAD method). […] The influence of extract and ellagitannins on hyaluronidase activity was measured using the USP turbidimetric method modified by Piwowarski et al. […]
pIC50: −log10 of the molar value.
readout-label: pIC50

>>> value("O=C(OC1COC(=O)c2cc(O)c(O)c(O)c2-c2c(cc(O)c(O)c2O)C(=O)OC1C1OC(=O)c2cc(O)c(O)c(O)c2-c2c(O)c(O)c(O)c3c2C(=O)OC1C3O)c1cc(O)c(O)c(O)c1Oc1cc2c(c(O)c1O)-c1c(cc(O)c(O)c1O)C(=O)OCC1OC(=O)c3cc(O)c(O)c(O)c3-c3c(O)c(O)c(O)c4c3C(=O)OC(C1OC2=O)C1OC(=O)c2c-4c(O)c(O)c(O)c2C1O (stereo not shown) [SC, salicarinin C]")
5.60
>>> value("O=C(OC1COC(=O)c2cc(O)c(O)c(O)c2-c2c(cc(O)c(O)c2O)C(=O)OC1C1OC(=O)c2cc(O)c(O)c(O)c2-c2c(O)c(O)c(O)c3c2C(=O)OC1C3O)c1cc(O)c(O)c(O)c1Oc1cc2c(c(O)c1O)-c1c(cc(O)c(O)c1O)C(=O)OCC1OC(=O)c3cc(O)c(O)c(O)c3-c3c(O)c(O)c(O)c4c3C(=O)OC(C1OC2=O)C1OC(=O)c2c-4c(O)c(O)c(O)c2C1O (stereo not shown) [SB, salicarinin B]")
5.80
>>> value("O=C1OC[C@H]2OC(=O)c3cc(O)c(O)c(O)c3-c3c(O)c(O)c(O)c4c3C(=O)O[C@H]([C@H]3OC(=O)c5c-4c(O)c(O)c(O)c5[C@H]3O)[C@@H]2OC(=O)c2cc(O)c(O)c(O)c2-c2c1cc(O)c(O)c2O")
5.51
>>> value("O=C1OCC2OC(=O)c3cc(O)c(O)c(O)c3-c3c(O)c(O)c(O)c4c3C(=O)OC(C2OC(=O)c2cc(O)c(O)c(O)c2-c2c1cc(O)c(O)c2O)C1OC(=O)c2c-4c(O)c(O)c(O)c2C1O (stereo not shown)")
5.51

---

Test system: ROS
Experiment: ROS release from f-MLP-stimulated neutrophils, luminol chemiluminescence
Format: cell-based, human
Details: 20 μM, % of stimulated control
readout-label: ROS release Mean(%)

>>> value("O=C(OC1COC(=O)c2cc(O)c(O)c(O)c2-c2c(cc(O)c(O)c2O)C(=O)OC1C1OC(=O)c2cc(O)c(O)c(O)c2-c2c(O)c(O)c(O)c3c2C(=O)OC1C3O)c1cc(O)c(O)c(O)c1Oc1cc2c(c(O)c1O)-c1c(cc(O)c(O)c1O)C(=O)OCC1OC(=O)c3cc(O)c(O)c(O)c3-c3c(O)c(O)c(O)c4c3C(=O)OC(C1OC2=O)C1OC(=O)c2c-4c(O)c(O)c(O)c2C1O (stereo not drawn) [SB, salicarinin B]")
"16,39%"
>>> value("O=C1O[C@H]([C@@H](O)CO)C(O)=C1O [VitC, ascorbic acid, reference compound]")
"61,91%"
>>> value("O=C1OCC2OC(=O)c3cc(O)c(O)c(O)c3-c3c(O)c(O)c(O)c4c3C(=O)OC(C2OC(=O)c2cc(O)c(O)c(O)c2-c2c1cc(O)c(O)c2O)C1OC(=O)c2c-4c(O)c(O)c(O)c2C1O (stereo not drawn)")
"30,13%"

Where do these numbers come from? They come from paper PMC4544630.
